Ref: ChEMBL document CHEMBL1138480

- protocol_summary: Total clearance in Beagle dog at 0.10 mg/kg, iv by cassette assay
- Format: ADME, organism-based, Canis lupus familiaris
- Set-up: dose 0.1 mg/kg, route intravenous
- measurement_context: in vivo, 0.1 mg/kg
clearance vs 5 mL/min/kg: at or above is Yes, below is No.

cpd_smiles	assigned_category
CC(C)Nc1cc(-c2ccc(CCNC[C@H](O)c3ccccc3)cc2)ccc1C(=O)NS(C)(=O)=O.Cl.Cl	Yes
CS(=O)(=O)NC(=O)c1ccc(-c2ccc(CCNC[C@H](O)c3ccccc3)cc2)cc1OC1CCCCC1.Cl	No
CC(C)Cc1cc(-c2ccc(CCNC[C@H](O)c3ccccc3)cc2)ccc1C(=O)NS(C)(=O)=O.Cl	Yes

# input Does the molecule CS(=O)(=O)NC(=O)c1ccc(-c2ccc(CCNC[C@H](O)c3cccnc3)cc2)cc1NC1CCCCC1.Cl.Cl.Cl have recorded clearance that is 5 mL/min/kg or more?
# output Yes
